These data points were gathered from patent US12516022B2.

assay: Time course of conversion to indirubin in FaSSGF at 37° C.;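 further: compound incubated in fasted state simulated gastric fluid, species in samples quantified by UPLC-MS with UV (210–400 nm) and ELS detection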; assay type: physicochemical; conditions: FaSSGF (Example 4; table title prints FaSSIF) 37° C., 15 min
Measured indirubin methylene alcohol values are reported for all entries that follow.

{"COMPOUND": "CN(C)CCN(CCN(C)C)CN1C(=O)/C(=C2\\Nc3ccccc3C2=O)c2ccccc21 [drawing 271]", "VALUE_UNITS": "%", "indirubin methylene alcohol": 5}
{"COMPOUND": "O=C1/C(=C2/C(=O)N(CN3CCCCC3)c3ccccc32)Nc2ccccc21 [drawing 269]", "VALUE_UNITS": "%", "indirubin methylene alcohol": 0}
{"COMPOUND": "CN(C)C1CCN(CN2C(=O)/C(=C3\\Nc4ccccc4C3=O)c3ccccc32)CC1 [drawing 272]", "VALUE_UNITS": "%", "indirubin methylene alcohol": 5}
{"COMPOUND": "CCN(CC)CN1C(=O)/C(=C2\\Nc3ccccc3C2=O)c2ccccc21 [drawing 267]", "VALUE_UNITS": "%", "indirubin methylene alcohol": 0}
{"COMPOUND": "CNCCNC(=O)N1C(=O)/C(=C2\\Nc3ccccc3C2=O)c2ccccc21.Cl [drawing 279]", "VALUE_UNITS": "%", "indirubin methylene alcohol": 0}
{"COMPOUND": "O=C1/C(=C2/C(=O)N(CN3CCC3)c3ccccc32)Nc2ccccc21 [drawing 275]", "VALUE_UNITS": "%", "indirubin methylene alcohol": 2}
{"COMPOUND": "O=C1/C(=C2/C(=O)N(CO)c3ccccc32)Nc2ccccc21 [drawing 274]", "VALUE_UNITS": "%", "indirubin methylene alcohol": 92}
{"COMPOUND": "CN1CCN(CN2C(=O)/C(=C3\\Nc4ccccc4C3=O)c3ccccc32)CC1 [drawing 273]", "VALUE_UNITS": "%", "indirubin methylene alcohol": 0}
{"COMPOUND": "O=C1/C(=C2/C(=O)N(C(=O)NC3CCOCC3)c3ccccc32)Nc2ccccc21 [drawing 278]", "VALUE_UNITS": "%", "indirubin methylene alcohol": 0}
{"COMPOUND": "CN(C)CCN(C)CN1C(=O)/C(=C2\\Nc3ccccc3C2=O)c2ccccc21 [drawing 268]", "VALUE_UNITS": "%", "indirubin methylene alcohol": 6}
{"COMPOUND": "O=C1/C(=C2/C(=O)N(CN3CCCC3)c3ccccc32)Nc2ccccc21 [drawing 270]", "VALUE_UNITS": "%", "indirubin methylene alcohol": 0}
{"COMPOUND": "O=C1/C(=C2/C(=O)N(COS(=O)(=O)O)c3ccccc32)Nc2ccccc21 [drawing 277]", "VALUE_UNITS": "%", "indirubin methylene alcohol": 15}
{"COMPOUND": "CC(=O)N1CCN(CN2C(=O)/C(=C3\\Nc4ccccc4C3=O)c3ccccc32)CC1 [drawing 281]", "VALUE_UNITS": "%", "indirubin methylene alcohol": 4}
{"COMPOUND": "O=C1/C(=C2/C(=O)N(CN3CCOCC3)c3ccccc32)Nc2ccccc21 [drawing 276]", "VALUE_UNITS": "%", "indirubin methylene alcohol": 0}

* * *

test: Time course of conversion to indirubin in FaSSIF at 37° C.;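 further: test compound, about 1-3 mg in 5 mL FaSSIF, sampled and analysed by UPLC-MS with PDA UV (210-400 nm), QDa mass and evaporative light scattering detection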; format: physicochemical; conditions: FaSSIF 37° C., 15 min
Quick reference: indirubin of the listed items.
READOUT_LABEL: indirubin (%)

{"COMPOUND": "O=C1/C(=C2/C(=O)N(CN3CCC3)c3ccccc32)Nc2ccccc21 [drawing 266]", "MEASURED_VALUE": 9}
{"COMPOUND": "O=C1/C(=C2/C(=O)N(COS(=O)(=O)O)c3ccccc32)Nc2ccccc21 [drawing 262]", "MEASURED_VALUE": 7}
{"COMPOUND": "O=C1/C(=C2/C(=O)N(C(=O)NC3CCOCC3)c3ccccc32)Nc2ccccc21 [drawing 263]", "MEASURED_VALUE": 8}
{"COMPOUND": "CN(C)CCN(C)CN1C(=O)/C(=C2\\Nc3ccccc3C2=O)c2ccccc21 [drawing 253]", "MEASURED_VALUE": 90}
{"COMPOUND": "O=C1/C(=C2/C(=O)N(CN3CCCC3)c3ccccc32)Nc2ccccc21 [drawing 255]", "MEASURED_VALUE": 100}
{"COMPOUND": "CN(C)CCN(CCN(C)C)CN1C(=O)/C(=C2\\Nc3ccccc3C2=O)c2ccccc21 [drawing 257]", "MEASURED_VALUE": 78}
